# System: Liver microsomes
# Measurement Notes: Intrinsic clearance in human liver microsomes after 15 mins
# Type: ADME, Microsome
// values below are reported CLint
Reply with just the number (in µL/min/mg).

• CCc1nn2c(-c3c(C)cc(C)cc3OC)cccc2c1N(CC1CC1)CC1CC1 = 1120
• COCc1cc(OC)c(-c2cccc3c(N(CC4CCOCC4)CC4CC4)c(OC)nn23)c(OC)c1 = 760
• CCc1nn2c(-c3c(C)cc(C)cc3OC)cccc2c1N(CC1CC1)CC1CCOC1 (configuration not stated) = 1350
• CCc1nn2c(-c3c(OC)cc(C)cc3OC)cccc2c1N(CC1CCOCC1)CC1CC1 = 440
• COCc1cc(OC)c(-c2cccc3c(N(CC4CCOCC4)CC4CC4)c(SC)nn23)c(OC)c1 = 340

State the recorded CLint for this entry: CCc1nn2c(-c3c(C)cc(C)cc3OC)cccc2c1N(CCCF)CC1CC1
1410

State the recorded CLint for this entry: CCc1nn2c(-c3c(COC)cc(OC)cc3OC)cccc2c1N(CC1CCOCC1)CC1CC1
530

----------
# Measurement Notes: Clearance in CD1 (ICR) mouse at 3 mg/kg, iv
# Format: ADME, organism-based
# Set-up: dose 3 mg/kg, route intravenous
# Condition Parameters: in vivo
Value Type: clearance (mL/min/kg)
Reply with just the number (in mL/min/kg).

State the recorded clearance for this entry: CCc1nn2c(-c3c(OC)cc(COC)cc3OC)cccc2c1N(CC1CCOCC1)CC1CC1.Cc1ccc(S(=O)(=O)O)cc1
43.3

----------
# System: Liver microsomes
# Measurement Notes: Intrinsic clearance in human liver microsomes after 15 mins
# Type: ADME, Microsome
// values below are reported CLint

Below are worked cases with known answers.
- CCc1nn2c(-c3c(OC)cc(COC)cc3OC)cccc2c1N(CC1CCOCC1)CC1CC1: 300 µL/min/mg
- CCc1nn2c(-c3c(C)cc(OC)cc3OC)cccc2c1N(CC1CCOCC1)CC1CC1: 450 µL/min/mg
- CCc1nn2c(-c3c(C)cc(C)cc3OC)cccc2c1N(CC1CCOCC1)CC1CC1: 450 µL/min/mg

State the recorded CLint for this entry: CCc1nn2c(-c3cc(OC)c(OC)cc3OC)cccc2c1N(CC1CCOCC1)CC1CC1
600 µL/min/mg

State the recorded CLint for this entry: CCOCc1cc(OC)c(-c2cccc3c(N(CC4CCOCC4)CC4CC4)c(CC)nn23)c(OC)c1
520 µL/min/mg

State the recorded CLint for this entry: COCc1cc(OC)c(-c2cccc3c(N(CC4CCOCC4)CC4CC4)c(C#N)nn23)c(OC)c1
1100 µL/min/mg

State the recorded CLint for this entry: COCc1cc(OC)c(-c2cccc3c(N(CC4CCOCC4)CC4CC4)c(C)nn23)c(OC)c1
110 µL/min/mg

State the recorded CLint for this entry: CCc1nn2c(-c3c(C)cc(C)cc3OC)cccc2c1N(CCOC)CC1CC1
1690 µL/min/mg

State the recorded CLint for this entry: CCCN(CC1CCOCC1)c1c(CC)nn2c(-c3c(OC)cc(C)cc3OC)cccc12
890 µL/min/mg

----------
# Measurement Notes: AUC in CD1 (ICR) mouse at 3 mg/kg, iv
# Type: ADME, organism-based
# Design: dose 3 mg/kg, route intravenous
# Condition Parameters: plasma
Value Type: AUC (ng·h/mL)
Reply with just the number (in ng·h/mL).

State the recorded AUC for this entry: CCc1nn2c(-c3c(OC)cc(COC)cc3OC)cccc2c1N(CC1CCOCC1)CC1CC1.Cc1ccc(S(=O)(=O)O)cc1
850
